TESTED SYSTEM: T1, human TREM2 (human, UniProt Q9NZC2 19-174, limits assumed)
T1 construct: also called triggering receptor expressed on myeloid cells 2
T1 sequence: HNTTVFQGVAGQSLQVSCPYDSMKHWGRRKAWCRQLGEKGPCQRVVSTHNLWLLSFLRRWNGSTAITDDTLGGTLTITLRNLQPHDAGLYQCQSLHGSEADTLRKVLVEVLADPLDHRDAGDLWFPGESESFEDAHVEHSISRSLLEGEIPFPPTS
PROTOCOL DESCRIPTION: 1st screen, 110 nM Ab
Reported Binding Signal values for a set of binders

[[record]]
binder = "V58 (antibody, V domains shown, also called 6E7 variant V58) VH: EVQLVQSGAEVKKPGESLKISCKGSGYSFTSYWIAWVRQMPGKGLEWMGIIYPGDSDTRYSPSFQGQVTISADKSISTAYLQWSSLKASDTAMYFCARQRTFYYDSSDYFDYWGQGTLVTVSS VL: DIQMTQSPSSVSASVGDRVTITCRASQGISSWLAWYQQKPGKAPKLLIYKASSLQNGVPSRFSGSGSGTDFTLTISSLQPEDFATYFCQQADSFPRTFGQGTKLEIK"
reported_endpoint = "Binding Signal"
result = "0.28 fold over 6E7 parental antibody"


## Input Requested read-out: Binding Signal. Entry: V46 (antibody, V domains shown, also called 6E7 variant V46) VH: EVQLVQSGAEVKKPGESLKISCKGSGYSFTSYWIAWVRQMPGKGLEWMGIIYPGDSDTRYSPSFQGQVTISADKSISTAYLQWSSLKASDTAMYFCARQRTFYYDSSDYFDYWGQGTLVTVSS VL: DIQMTQSPSSVSASVGDRVTITCRASQGISSWLAWYQQKPGKAPKLLIYAASTLQNGVPSRFSGSGSGTDFTLTISSLQPEDFATYFCQQADSFPRTFGQGTKLEIK
## Output 0.83 fold over 6E7 parental antibody

## Input For V70 (antibody, V domains shown, also called 6E7 variant V70; LV-204/HV-15) VH: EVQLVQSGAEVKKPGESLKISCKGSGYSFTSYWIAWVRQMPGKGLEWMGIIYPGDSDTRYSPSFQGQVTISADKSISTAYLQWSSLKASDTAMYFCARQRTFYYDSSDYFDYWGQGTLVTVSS VL: DIQMTQSPSSVSASVGDRVTITCRASQGISSWLAWYQQKPGKAPKLLIYAAGSLQNGVPSRFSGSGSGTDFTLTISSLQPEDFATYFCQQADSFPRTFGQGTKLEIK then?
## Output 0.79 fold over 6E7 parental antibody

## Input Also, V9 (antibody, V domains shown, also called 6E7 variant V9; LV-16/HV-201) VH: EVQLVQSGAEVKKPGESLKISCKGSGYSFTSYWIAWVRQMPGKGLEWMGIIYPGDSDTRYSPSFQGQVTISADKSISTAYLQWSSLKASDTAMYFCARQRGFYYDSSDYFDYWGQGTLVTVSS VL: DIQMTQSPSSVSASVGDRVTITCRASQGISSWLAWYQQKPGKAPKLLIYAASSLQNGVPSRFSGSGSGTDFTLTISSLQPEDFATYFCQQADSFPRTFGQGTKLEIK please.
## Output 0.67 fold over 6E7 parental antibody

## Input Entry V18 (antibody, V domains shown, also called 6E7 variant V18) VH: EVQLVQSGAEVKKPGESLKISCKGSGYSFTSYHIAWVRQMPGKGLEWMGIIYPGDSDTRYSPSFQGQVTISADKSISTAYLQWSSLKASDTAMYFCARQRTFYYDSSDYFDYWGQGTLVTVSS VL: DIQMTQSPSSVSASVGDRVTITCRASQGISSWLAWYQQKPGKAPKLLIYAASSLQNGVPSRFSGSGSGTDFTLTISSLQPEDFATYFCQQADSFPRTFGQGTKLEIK please
## Output 0.17 fold over 6E7 parental antibody

## Input What do you have for V31 (antibody, V domains shown, also called 6E7 variant V31) VH: EVQLVQSGAEVKKPGESLKISCKGSGYSFTSYWIAWVRQMPGKGLEWMGIIYPGDSETRYSPSFQGQVTISADKSISTAYLQWSSLKASDTAMYFCARQRTFYYDSSDYFDYWGQGTLVTVSS VL: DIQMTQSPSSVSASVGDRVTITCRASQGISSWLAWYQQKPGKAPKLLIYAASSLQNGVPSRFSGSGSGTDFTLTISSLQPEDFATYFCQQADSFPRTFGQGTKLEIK ?
## Output 0.61 fold over 6E7 parental antibody

## Input Follow-up item: V7 (antibody, V domains shown, also called 6E7 variant V7) VH: EVQLVQSGAEVKKPGESLKISCKGSGYSFTSEWIAWVRQMPGKGLEWMGIIYPGDSDTRYSPSFQGQVTISADKSISTAYLQWSSLKASDTAMYFCARQRTFYYDSSDYFDYWGQGTLVTVSS VL: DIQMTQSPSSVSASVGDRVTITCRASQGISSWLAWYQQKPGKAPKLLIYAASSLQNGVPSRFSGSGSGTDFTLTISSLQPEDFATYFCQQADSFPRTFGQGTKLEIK
## Output 0.11 fold over 6E7 parental antibody

## Input Would you mind doing V44 (antibody, V domains shown, also called 6E7 variant V44; LV-16/HV-204) VH: EVQLVQSGAEVKKPGESLKISCKGSGYSFTSYWIAWVRQMPGKGLEWMGIIYPSDSDTRYSPSFQGQVTISADKSISTAYLQWSSLKASDTAMYFCARQRTFYYDSSDYFDYWGQGTLVTVSS VL: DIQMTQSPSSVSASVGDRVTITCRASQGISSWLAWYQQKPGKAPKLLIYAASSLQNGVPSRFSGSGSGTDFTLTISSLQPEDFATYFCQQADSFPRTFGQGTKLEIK as well?
## Output 0.65 fold over 6E7 parental antibody

## Input Ok, now V6 (antibody, V domains shown, also called 6E7 variant V6) VH: EVQLVQSGAEVKKPGESLKISCKGSGYSFTSMWIAWVRQMPGKGLEWMGIIYPGDSDTRYSPSFQGQVTISADKSISTAYLQWSSLKASDTAMYFCARQRTFYYDSSDYFDYWGQGTLVTVSS VL: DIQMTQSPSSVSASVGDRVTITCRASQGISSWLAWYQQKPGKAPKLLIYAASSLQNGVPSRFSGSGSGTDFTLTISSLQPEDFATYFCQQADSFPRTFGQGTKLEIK
## Output 0.2 fold over 6E7 parental antibody

## Input Another: V67 (antibody, V domains shown, also called 6E7 variant V67) VH: EVQLVQSGAEVKKPGESLKISCKGSGYSFTSYWIAWVRQMPGKGLEWMGMIYPGDSDTRYSPSFQGQVTISADKSISTAYLQWSSLKASDTAMYFCARQRTFYYDSSDYFDYWGQGTLVTVSS VL: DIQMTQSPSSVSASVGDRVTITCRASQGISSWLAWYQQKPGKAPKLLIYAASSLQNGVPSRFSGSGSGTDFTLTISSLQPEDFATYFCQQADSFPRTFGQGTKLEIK
## Output 0.8 fold over 6E7 parental antibody
